target-or-system: Cytochrome P450 3A4 (Homo sapiens, UniProt P08684)
Sequence (P08684 whole entry): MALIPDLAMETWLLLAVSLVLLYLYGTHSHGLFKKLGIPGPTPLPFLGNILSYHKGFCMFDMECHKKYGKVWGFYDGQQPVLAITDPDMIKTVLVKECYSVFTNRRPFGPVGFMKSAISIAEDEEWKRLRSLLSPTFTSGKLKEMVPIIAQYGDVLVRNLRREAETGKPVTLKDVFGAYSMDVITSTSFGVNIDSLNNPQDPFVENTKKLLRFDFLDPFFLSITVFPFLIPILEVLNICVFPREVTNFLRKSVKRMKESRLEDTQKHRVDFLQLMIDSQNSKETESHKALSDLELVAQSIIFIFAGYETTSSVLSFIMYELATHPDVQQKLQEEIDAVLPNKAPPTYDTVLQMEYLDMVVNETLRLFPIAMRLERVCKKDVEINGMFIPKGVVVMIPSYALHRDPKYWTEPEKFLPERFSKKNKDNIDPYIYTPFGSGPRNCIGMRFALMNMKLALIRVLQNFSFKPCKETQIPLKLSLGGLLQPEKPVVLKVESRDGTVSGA
property: AC50

- molecule: "O=C(CSc1nnc(Cc2cc(O)nc(O)n2)n1-c1ccccc1)N1CCCc2ccccc21"
  target-or-system: "Cytochrome P450 3A4 (Homo sapiens, UniProt P08684)"
  AC50: "15.8 µM (inconclusive)"
- molecule: "CCNc1ncc2nc(-c3cn(C)c4ccccc34)c(=O)n(-c3ccccc3)c2n1"
  target-or-system: "Cytochrome P450 3A4 (Homo sapiens, UniProt P08684)"
  AC50: "6.31 µM (inconclusive)"
- molecule: "CCOc1ccc(-n2c(SCC(=O)Nc3ccc(OC)cc3OC)nc3c(c2=O)SCC3)cc1"
  target-or-system: "Cytochrome P450 3A4 (Homo sapiens, UniProt P08684)"
  AC50: "15.8 µM (inconclusive)"
- molecule: "C#CCCCC(=O)Nc1ccccc1"
  target-or-system: "Cytochrome P450 3A4 (Homo sapiens, UniProt P08684)"
  AC50: "25.1 µM (inconclusive)"
- molecule: "Cc1ccc(Oc2nc(-c3ccccc3)ncc2S(C)(=O)=O)cc1"
  target-or-system: "Cytochrome P450 3A4 (Homo sapiens, UniProt P08684)"
  AC50: "14.1 µM (inconclusive)"
- molecule: "O=C(CN1C(=O)c2ccccc2C1=O)NCC(=O)OCC(=O)c1ccc(Br)cc1"
  target-or-system: "Cytochrome P450 3A4 (Homo sapiens, UniProt P08684)"
  AC50: "3.55 µM (inconclusive)"

[in] Which measured AC50 belongs to `CCC(=O)NCc1c(Cl)cccc1-n1cccc1` , tested on Cytochrome P450 3A4 (Homo sapiens, UniProt P08684)?
[out] 25.1 µM (inconclusive)

[in] Which measured AC50 belongs to `N=C(N)NC(=N)Nc1cccc(Cl)c1` , tested on Cytochrome P450 3A4 (Homo sapiens, UniProt P08684)?
[out] 79.4 µM (inconclusive)

[in] Which measured AC50 belongs to `CCCc1c(O)c2ccccc2n(-c2ccccc2)c1=O` , tested on Cytochrome P450 3A4 (Homo sapiens, UniProt P08684)?
[out] 22.4 µM (inconclusive)

[in] Which measured AC50 belongs to `Cn1c(=O)c(CCc2ccccc2)nc2cncnc21` , tested on Cytochrome P450 3A4 (Homo sapiens, UniProt P08684)?
[out] 15.8 µM (inconclusive)

[in] Which measured AC50 belongs to `Cc1ccc(-n2c(SCC(=O)N3CCOCC3)nnc2-c2cccnc2)cc1` , tested on Cytochrome P450 3A4 (Homo sapiens, UniProt P08684)?
[out] 10 µM (inconclusive)

[in] Which measured AC50 belongs to `CCCn1c(=O)c2[nH]c(C3CCCC3)nc2n(CCCOC(=O)c2ccc(S(=O)(=O)F)cc2)c1=O` , tested on Cytochrome P450 3A4 (Homo sapiens, UniProt P08684)?
[out] 3.16 µM (inconclusive)

[in] Which measured AC50 belongs to `COc1cccc(CNc2ccc(F)c(Cl)c2)c1O` , tested on Cytochrome P450 3A4 (Homo sapiens, UniProt P08684)?
[out] 35.5 µM (inconclusive)

[in] Which measured AC50 belongs to `CCCN1CN=C(S)N(c2cccc(C)c2C)C1` , tested on Cytochrome P450 3A4 (Homo sapiens, UniProt P08684)?
[out] 15.8 µM (inconclusive)

[in] Which measured AC50 belongs to `Cc1nn(Cc2ccc(Cl)cc2)c(C)c1NC(=O)Cn1nc([N+](=O)[O-])c(Cl)c1C` , tested on Cytochrome P450 3A4 (Homo sapiens, UniProt P08684)?
[out] 1.12 µM (inconclusive)

[in] Which measured AC50 belongs to `CC(=O)OCCNC(=O)c1cccnc1` , tested on Cytochrome P450 3A4 (Homo sapiens, UniProt P08684)?
[out] 20 µM (inconclusive)

[in] Which measured AC50 belongs to `CCCn1c(C)nc2c(c1=O)c1nc3ccccc3nc1n2CCC1=CCCCC1` , tested on Cytochrome P450 3A4 (Homo sapiens, UniProt P08684)?
[out] 3.16 µM (inconclusive)

[in] Which measured AC50 belongs to Clc1ccc2c(c1)C(N1CCNCC1)=Nc1ccccc1O2 [AMOXAPINE] , tested on Cytochrome P450 3A4 (Homo sapiens, UniProt P08684)?
[out] 15.8 µM (inconclusive)

[in] Which measured AC50 belongs to COc1cccc(C2=NOC(C(=O)NCc3ccccn3)C2)c1 (stereo not given) , tested on Cytochrome P450 3A4 (Homo sapiens, UniProt P08684)?
[out] 15.8 µM (inconclusive)

[in] Which measured AC50 belongs to CC(C)COP(=O)(OCC(C)C)C(O)c1ccccc1F (stereo not given) , tested on Cytochrome P450 3A4 (Homo sapiens, UniProt P08684)?;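 also: CYP3A4 tested as one member of a cytochrome P450 panel screen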
[out] 3.98 µM (inconclusive)

Numbers sourced from ChEMBL document CHEMBL1201862.
